# Tested on: MDA-MB-468
# Protocol summary: drug sensitivity score (DSS), CellTiter-Glo (DSS (AUC-based score)); higher = stronger drug effect (viability inhibition or cytotoxicity); extreme values may be limits of the assay
# Test settings: incubation time: 72 h
Assay endpoint: drug sensitivity score

Below, each entry is followed by its recorded drug sensitivity score result.
Molecule: CC1(COc2ccc3c(c2)ncn3-c2ccc3cccc(N4CCC(N)CC4)c3n2)COC1
drug sensitivity score: 3.61
--
Molecule: CC(=O)[C@]1(O)Cc2c(O)c3c(c(O)c2[C@@H](O[C@H]2C[C@H](N)[C@H](O)[C@H](C)O2)C1)C(=O)c1ccccc1C3=O
drug sensitivity score: 9.11
--
Molecule: CO[C@@H]1[C@H](N(C)C(=O)c2ccccc2)C[C@H]2O[C@]1(C)n1c3ccccc3c3c4c(c5c6ccccc6n2c5c31)C(=O)NC4
drug sensitivity score: 14.6

# batch size: 5; output drug sensitivity score per entry
1. Cc1cc(Nc2nc(N[C@@H](C)c3ncc(F)cn3)ncc2Cl)[nH]n1
2. CC1(C)CCC(c2ccc(Cl)cc2)=C(CN2CCN(c3ccc(C(=O)NS(=O)(=O)c4ccc(N[C@H](CCN5CCOCC5)CSc5ccccc5)c(S(=O)(=O)C(F)(F)F)c4)cc3)CC2)C1
3. CCNC(=O)c1noc(-c2cc(C(C)C)c(O)cc2O)c1-c1ccc(CN2CCOCC2)cc1
4. C=CCN(/C=C1/C(=O)O[C@H](COC)[C@@]2(C)C1=C(O)C(=O)C1=C2[C@H](OC(C)=O)C[C@]2(C)C(=O)CC[C@@H]12)CC=C
5. CN(C)C(=N)NC(=N)N

1: 0; 2: 4.81; 3: 21.8; 4: 0; 5: 0.63

GET /values?readout=drug sensitivity score&item= CO[C@@]12[C@H](COC(N)=O)C3=C(C(=O)C(C)=C(N)C3=O)N1C[C@@H]1N[C@@H]12
4.87
